Listing of recorded polymerase ribozyme fitness (log ratio) by entry.
B1: TPR t1 (parent)
chain: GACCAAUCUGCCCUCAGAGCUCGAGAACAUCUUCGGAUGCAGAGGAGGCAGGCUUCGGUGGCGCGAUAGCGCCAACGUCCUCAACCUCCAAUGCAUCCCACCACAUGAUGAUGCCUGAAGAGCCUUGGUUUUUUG

variants of: B1; test: polymerase ribozyme fitness, log enrichment relative to wild type (log ratio); higher = more active; in vitro selection for triplet polymerase activity

- Mutation Name: "G17U C70U U87A"
  polymerase ribozyme fitness (log ratio): -4.04
- Mutation Name: "G110A U132A"
  polymerase ribozyme fitness (log ratio): -1.37
- Mutation Name: "A6C C8A U87A"
  polymerase ribozyme fitness (log ratio): 0.391
- Mutation Name: "G51A A66U"
  polymerase ribozyme fitness (log ratio): -5.73
